Test system: TRZAWR (Wheat, Winter, cv Riband)
assayDetails: Preemergence herbicidal evaluation
Type: in vivo, Triticum aestivum
runConditions: Rate 0.0620 kg/ha; rated 4-5 weeks after treatment
measurementName: Preemergence herbicidal rating TRZAWR

Sample answers from the record:
compound: CCCC1COC(c2nsc3ccc(-n4c(=O)cc(C(F)(F)F)n(C)c4=O)cc23)O1 (centres unmarked) [Compound 77]
Preemergence herbicidal rating TRZAWR: 6.0
--
compound: Cn1c(C(F)(F)F)cc(=O)n(-c2ccc3snc(C4OCC(CO)O4)c3c2)c1=O (centres unmarked) [Compound 73]
Preemergence herbicidal rating TRZAWR: 4.0

Lookup: So what's the measured Preemergence herbicidal rating TRZAWR for this one? C[C@@H]1C[C@H](C)OC(c2nsc3cc(F)c(-n4c(=O)cc(C(F)(F)F)n(C)c4=O)cc23)O1 (some centres unmarked) [Compound 67]
Found: 9.0

Lookup: Now give it for Cn1c(C(F)(F)F)cc(=O)n(-c2ccc3snc(-c4sccc4CBr)c3c2)c1=O [Compound 80] too.
Found: 0.0
